Reference source: patent US20250235543A1

target: CDK4 (Homo sapiens); construct: endogenous in cells; host or cells: Calu-1; assay: CDK4 percentage degradation in Calu-1 cells (immunoblotting); type: cell-based; conditions: Calu-1 cells, 200 nM, 16 hours; read-out: CDK4 Degradation (200 nM)
Test Readout: inhibition at 0.2 µM

Some solved cases for reference:
Molecule Smiles | inhibition at 0.2 µM
CC(=O)c1c(C)c2cnc(Nc3ccc(N4CCN(CC(=O)NCCCCCCCNc5ccc(C)c(C(=O)Nc6nc(C)c(C)s6)c5)CC4)cn3)nc2n(C2CCCC2)c1=O | 30 to 50%
CC(=O)c1c(C)c2cnc(Nc3ccc(N4CCN(CC(=O)NCCOCCNc5cccc(C(=O)Nc6nc(C)c(C)s6)c5C)CC4)cn3)nc2n(C2CCCC2)c1=O | < 30%

Q) What measured inhibition at 0.2 µM is associated with `CC(=O)c1c(C)c2cnc(Nc3ccc(N4CCN(CC(=O)NCCCCCCCNc5cccc(C(=O)Nc6ccc(C)nc6)c5C)CC4)cn3)nc2n(C2CCCC2)c1=O` on CDK4 (Homo sapiens)?
A) < 30%

Q) What measured inhibition at 0.2 µM is associated with `CC(=O)c1c(C)c2cnc(Nc3ccc(N4CCN(CC(=O)NCCOCCOCCC(=O)Nc5ccccc5C(=O)Nc5cc(C)n(C(C)C)n5)CC4)cn3)nc2n(C2CCCC2)c1=O` on CDK4 (Homo sapiens)?
A) 50 to 80%

Q) What measured inhibition at 0.2 µM is associated with `CC(=O)c1c(C)c2cnc(N(C)c3ccc(N4CCN(CC(=O)NCCOCCOCCOCCOCCOCCNc5ccc(C(=O)Nc6nc(C)c(C)s6)c(C)c5)CC4)cn3)nc2n(C2CCCC2)c1=O` on CDK4 (Homo sapiens)?
A) < 30%

###

molecular target: CDK4 (Homo sapiens); construct: endogenous in cells; host or cells: Calu-1; assay: CDK4 percentage degradation in Calu-1 cells (immunoblotting); format: cell-based; settings: Calu-1 cells, 200 nM, 16 hours; read-out: CDK4 Degradation (200 nM)
Test Readout: inhibition at 0.2 µM

Compound | inhibition at 0.2 µM
CC(=O)c1c(C)c2cnc(Nc3ccc(N4CCN(CC(=O)NCCOCCOCCC(=O)Nc5ccccc5C(=O)Nc5nc(C6CCOCC6)c(C)s5)CC4)cn3)nc2n(C2CCCC2)c1=O [CPD-062] | < 30%
CC(=O)c1c(C)c2cnc(Nc3ccc(N4CCN(CC(=O)NCCOCCOCCOCCOCCOCCOCCC(=O)Nc5ccccc5C(=O)Nc5nc(C)c(C)s5)CC4)cn3)nc2n(C2CCCC2)c1=O [CPD-173] | > 80%
CC(=O)c1c(C)c2cnc(Nc3ccc(N4CCN(CC(=O)NCCCCCNc5ccccc5C(=O)Nc5nc(C)c(C)s5)CC4)cn3)nc2n(C2CCCC2)c1=O [CPD-363] | 50 to 80%
CC(=O)c1c(C)c2cnc(Nc3ccc(N4CCN(CC(=O)NCCOCCOCCOCCOCCOCCNC(=O)CNc5ccc(C(=O)Nc6ncc(C)s6)c(C)c5)CC4)cn3)nc2n(C2CCCC2)c1=O [CPD-014] | < 30%

# ---- query compound ----
Q) Would you kindly share the measured inhibition at 0.2 µM for CC(=O)c1c(C)c2cnc(Nc3ccc(N4CCN(CC(=O)NCCOCCOCCC(=O)Nc5ccccc5C(=O)Nc5cnc(C)nc5)CC4)cn3)nc2n(C2CCCC2)c1=O [CPD-186] ?
A) 50 to 80%

###

Let's look at some compounds and their measured inhibition at 0.2 µM.
target: CDK4 (Homo sapiens); construct: endogenous in cells; host or cells: Calu-1; assay: CDK4 percentage degradation in Calu-1 cells (immunoblotting); assay type: cell-based; conditions: Calu-1 cells, 200 nM, 16 hours; read-out: CDK4 Degradation (200 nM)

Some solved cases for reference:
Molecule Smiles | Assayed System | inhibition at 0.2 µM
CC(=O)c1c(C)c2cnc(Nc3ccc(N4CCN(CC(=O)NCCOCCOCCOCCOCCNC(=O)CNc5ccc(C(=O)Nc6ncc(C)s6)c(C)c5)CC4)cn3)nc2n(C2CCCC2)c1=O | CDK4 (Homo sapiens) | < 30%
CC(=O)c1c(C)c2cnc(Nc3ccc(N4CCN(CC(=O)NCCOCCOCCOCCOCCOCCNc5ccc(C(=O)Nc6ncc(C7CC7)s6)c(C)c5)CC4)cn3)nc2n(C2CCCC2)c1=O | CDK4 (Homo sapiens) | < 30%
CC(=O)c1nc(NC(=O)c2ccc(NCCOCCOCCOCCOCCOCCNC(=O)CN3CCN(c4ccc(Nc5ncc6c(C)c(C(C)=O)c(=O)n(C7CCCC7)c6n5)nc4)CC3)cc2C)sc1C | CDK4 (Homo sapiens) | 50 to 80%
CC(=O)c1c(C)c2cnc(Nc3ccc(N4CCN(CC(=O)NCCOCCOCCC(=O)Nc5ccccc5C(=O)Nc5nc(C)ns5)CC4)cn3)nc2n(C2CCCC2)c1=O | CDK4 (Homo sapiens) | < 30%
CC(=O)c1c(C)c2cnc(Nc3ccc(N4CCN(CC(=O)NCCCNc5cccc(C(=O)Nc6nc(C)c(C)s6)c5C)CC4)cn3)nc2n(C2CCCC2)c1=O | CDK4 (Homo sapiens) | < 30%
CC(=O)c1c(C)c2cnc(Nc3ccc(N4CCN(CC(=O)NCCOCCOCCOCCOCCOCCNc5ccc(C(=O)Nc6ncc(C)s6)c(C)c5)CC4)cn3)nc2n(C2CCCC2)c1=O | CDK4 (Homo sapiens) | 50 to 80%
CC(=O)c1c(C)c2cnc(Nc3ccc(N4CCN(CC(=O)NCCCCCCCCNc5cccc(C(=O)Nc6nc(C)c(C)s6)c5C)CC4)cn3)nc2n(C2CCCC2)c1=O | CDK4 (Homo sapiens) | 50 to 80%
CC(=O)c1c(C)c2cnc(Nc3ccc(N4CCN(CC(=O)NCCOCCOCCC(=O)Nc5ccccc5C(=O)Nc5nc(Br)c(C)s5)CC4)cn3)nc2n(C2CCCC2)c1=O | CDK4 (Homo sapiens) | > 80%
CC(=O)c1c(C)c2cnc(Nc3ccc(N4CCN(CC(=O)NCCCNc5ccc(C)c(C(=O)Nc6nc(C)c(C)s6)c5)CC4)cn3)nc2n(C2CCCC2)c1=O | CDK4 (Homo sapiens) | < 30%
CC(=O)c1c(C)c2cnc(Nc3ccc(N4CCN(CC(=O)NCCOCCOCCOCCOCCC(=O)Nc5ccccc5C(=O)Nc5nc(C)c(C)s5)CC4)cn3)nc2n(C2CCCC2)c1=O | CDK4 (Homo sapiens) | 50 to 80%

Q) Would you kindly share the measured inhibition at 0.2 µM for `CC(=O)c1c(C)c2cnc(Nc3ccc(N4CCN(CC(=O)NCCCC(=O)Nc5ccccc5C(=O)Nc5nc(C)c(C)s5)CC4)cn3)nc2n(C2CCCC2)c1=O` ?
A) < 30%

###

biological target: CDK4 (Homo sapiens, UniProt P11802); construct: endogenous in cells; host or cells: Calu-1; experiment: CDK4 percentage degradation in Calu-1 cells (immunoblotting); assay type: cell-based; settings: Calu-1 cells, 200 nM, 16 hours; read-out: CDK4 Degradation (200 nM)
Sequence (P11802 2-303 limits assumed): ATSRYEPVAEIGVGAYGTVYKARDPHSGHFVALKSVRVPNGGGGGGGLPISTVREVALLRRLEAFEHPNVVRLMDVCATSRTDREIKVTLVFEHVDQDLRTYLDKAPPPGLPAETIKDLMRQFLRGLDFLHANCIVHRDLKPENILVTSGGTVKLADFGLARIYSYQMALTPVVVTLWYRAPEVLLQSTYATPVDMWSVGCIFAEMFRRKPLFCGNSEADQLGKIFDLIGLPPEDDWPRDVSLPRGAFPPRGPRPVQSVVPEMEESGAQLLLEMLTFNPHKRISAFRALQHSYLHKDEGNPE
Sequence (P24385 whole entry partner): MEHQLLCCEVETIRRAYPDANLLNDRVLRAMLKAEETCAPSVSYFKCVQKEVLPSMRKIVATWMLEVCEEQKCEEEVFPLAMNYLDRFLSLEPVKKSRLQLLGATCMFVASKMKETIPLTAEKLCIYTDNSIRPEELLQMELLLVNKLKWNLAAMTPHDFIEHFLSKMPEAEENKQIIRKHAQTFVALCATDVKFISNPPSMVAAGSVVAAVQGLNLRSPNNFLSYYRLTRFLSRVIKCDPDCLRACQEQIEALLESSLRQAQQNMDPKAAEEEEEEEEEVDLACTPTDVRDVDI
Sequence (Q16531 2-1140 limits assumed, further chain): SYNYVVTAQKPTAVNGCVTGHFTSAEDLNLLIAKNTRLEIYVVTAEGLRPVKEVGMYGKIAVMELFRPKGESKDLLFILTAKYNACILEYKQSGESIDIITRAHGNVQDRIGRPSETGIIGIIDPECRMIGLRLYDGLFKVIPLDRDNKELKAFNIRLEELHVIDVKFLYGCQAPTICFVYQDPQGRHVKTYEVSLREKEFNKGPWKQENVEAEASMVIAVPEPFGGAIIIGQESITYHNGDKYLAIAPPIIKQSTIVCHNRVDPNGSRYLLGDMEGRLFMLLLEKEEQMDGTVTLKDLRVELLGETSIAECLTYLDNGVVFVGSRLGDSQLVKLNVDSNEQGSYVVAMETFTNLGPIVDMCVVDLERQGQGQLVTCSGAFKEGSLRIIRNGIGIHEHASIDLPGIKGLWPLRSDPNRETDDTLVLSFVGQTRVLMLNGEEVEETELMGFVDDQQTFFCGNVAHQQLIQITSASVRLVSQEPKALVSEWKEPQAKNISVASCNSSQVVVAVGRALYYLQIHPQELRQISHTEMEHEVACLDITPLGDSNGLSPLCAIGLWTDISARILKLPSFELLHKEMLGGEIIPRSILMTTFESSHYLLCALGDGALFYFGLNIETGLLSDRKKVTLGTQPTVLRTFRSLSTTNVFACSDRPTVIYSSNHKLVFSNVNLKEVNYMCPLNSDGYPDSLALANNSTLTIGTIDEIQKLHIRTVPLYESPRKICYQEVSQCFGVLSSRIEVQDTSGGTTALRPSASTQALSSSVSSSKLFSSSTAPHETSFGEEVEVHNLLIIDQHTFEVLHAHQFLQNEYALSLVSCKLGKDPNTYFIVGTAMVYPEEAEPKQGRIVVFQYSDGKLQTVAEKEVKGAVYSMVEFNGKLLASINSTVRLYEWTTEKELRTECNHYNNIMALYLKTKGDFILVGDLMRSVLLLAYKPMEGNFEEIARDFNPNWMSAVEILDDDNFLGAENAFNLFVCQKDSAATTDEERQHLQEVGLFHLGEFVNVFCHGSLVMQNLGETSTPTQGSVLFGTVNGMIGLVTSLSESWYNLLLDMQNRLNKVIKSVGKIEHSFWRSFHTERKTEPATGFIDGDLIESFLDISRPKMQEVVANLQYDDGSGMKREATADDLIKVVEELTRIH
Let's look at some molecules and their measured inhibition at 0.2 µM.

Some solved cases for reference:
Molecule Smiles | inhibition at 0.2 µM
CC(=O)c1c(C)c2cnc(Nc3ccc(N4CCN(CC(=O)NCCOCCOCCC(=O)Nc5ccccc5C(=O)Nc5ccc(C#N)cn5)CC4)cn3)nc2n(C2CCCC2)c1=O | 50 to 80%
CC(=O)c1c(C)c2cnc(Nc3ccc(N4CCN(CC(=O)NCCOCCOCCOCCOCCOCCNc5ccc(C(=O)Nc6nc(-c7ccccc7)c(C)s6)c(C)c5)CC4)cn3)nc2n(C2CCCC2)c1=O | < 30%
CC(=O)c1c(C)c2cnc(Nc3ccc(N4CCN(CC(=O)NCCOCCOCCC(=O)Nc5ccccc5C(=O)Nc5nc(C(C)C)c(C)s5)CC4)cn3)nc2n(C2CCCC2)c1=O | > 80%

Q) Would you kindly share the measured inhibition at 0.2 µM for `CC(=O)c1c(C)c2cnc(Nc3ccc(N4CCN(CC(=O)NCCOCCOCCC(=O)Nc5ccccc5C(=O)Nc5ccc(C)cn5)CC4)cn3)nc2n(C2CCCC2)c1=O` ?
A) 50 to 80%

Q) Would you kindly share the measured inhibition at 0.2 µM for `CC(=O)c1c(C)c2cnc(Nc3ccc(N4CCN(CC(=O)NCCOCCOCCOCCOCCNC(=O)COc5ccc(C(=O)Nc6ncc(C)s6)c(C)c5)CC4)cn3)nc2n(C2CCCC2)c1=O` ?
A) < 30%

###

target: CDK4 (Homo sapiens); construct: endogenous in cells; host or cells: Calu-1; assay: CDK4 percentage degradation in Calu-1 cells (immunoblotting); type: cell-based; details: Calu-1 cells, 10 μM, 16 hours; read-out: CDK4 Degradation (10 μM)
Test Readout: inhibition at 10 µM

Some solved cases for reference:
Molecule Smiles | inhibition at 10 µM
Cc1nc(NC(=O)c2ccccc2NC(=O)CCCCCCNC(=O)CN2CCN(c3ccc(Nc4ncc5cc6n(c5n4)C4(CCCCC4)CNC6=O)nc3)CC2)sc1C | 50 to 80%
Cc1nc(NC(=O)c2ccccc2NC(=O)CCCCCCCCNC(=O)CN2CCN(c3ccc(Nc4ncc5cc(C(=O)N(C)C)n(C6CCCC6)c5n4)nc3)CC2)sc1C | 50 to 80%
Cc1nc(NC(=O)c2ccccc2NC(=O)CCOCCOCCNC(=O)CN2CCN(c3ccc(Nc4ncc5cc6n(c5n4)C4(CCCCC4)CNC6=O)nc3)CC2)sc1C | 50 to 80%
Cc1nc(NC(=O)c2ccccc2NC(=O)CCOCCOCCOCCOCCOCCNC(=O)CN2CCN(Cc3ccc(Nc4ncc(F)c(-c5cc(F)c6nc(C)n(C(C)C)c6c5)n4)nc3)CC2)sc1C | < 30%

Q) Would you kindly share the measured inhibition at 10 µM for `Cc1nc(NC(=O)c2ccccc2NC(=O)CCOCCOCCNC(=O)CN2CCN(c3ccc(Nc4ncc(F)c(-c5cc(F)c6nc(C)n(C(C)C)c6c5)n4)nc3)CC2)sc1C` ?
A) 30 to 50%

Q) Would you kindly share the measured inhibition at 10 µM for `Cc1nc(NC(=O)c2ccccc2NC(=O)CCOCCOCCOCCOCCOCCNC(=O)CN2CCN(c3ccc(Nc4ncc5cc(C(=O)N(C)C)n(C6CCCC6)c5n4)nc3)CC2)sc1C` ?
A) 50 to 80%

Q) Would you kindly share the measured inhibition at 10 µM for `Cc1nc(NC(=O)c2ccccc2NC(=O)CCCNC(=O)CN2CCN(c3ccc(Nc4ncc(F)c(-c5cc(F)c6nc(C)n(C(C)C)c6c5)n4)nc3)CC2)sc1C` ?
A) < 30%

Q) Would you kindly share the measured inhibition at 10 µM for `Cc1cnc(NC(=O)c2ccc(NCCOCCOCCOCCOCCOCCNC(=O)CN3CCN(c4ccc(Nc5ncc(F)c(-c6cc(F)c7nc(C)n(C(C)C)c7c6)n5)nc4)CC3)cc2C)s1` ?
A) 50 to 80%
